- tgt: IRF5(222-467, S430D), S430D phosphomimetic construct of IRF5 (222-467) (human), Q13568
- Sequence (Q13568 232-477 S440D limits assumed): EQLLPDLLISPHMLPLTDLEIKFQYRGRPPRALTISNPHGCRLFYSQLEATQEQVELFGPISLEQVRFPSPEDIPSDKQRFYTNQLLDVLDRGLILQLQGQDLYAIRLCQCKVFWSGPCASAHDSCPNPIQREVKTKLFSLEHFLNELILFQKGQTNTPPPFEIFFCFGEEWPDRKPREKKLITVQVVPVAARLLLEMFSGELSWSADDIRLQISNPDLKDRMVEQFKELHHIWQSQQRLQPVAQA
readout_type: IC50

1) Ac-KDLMVQWFKDGGPSSGAPPPS-NH2 [Ac-…-NH2 (SEQ ID NO: 8)] = 1680 nM
